B1: HEEH_KT_rd6_3546 (parent)
chain: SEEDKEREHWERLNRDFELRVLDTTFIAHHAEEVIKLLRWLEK

variants of: B1; assay: folding stability dG (cDNA display proteolysis); higher = more stable; conditions: PBS, room temperature
Values of folding stability dG greater than or equal to 1 kcal/mol map to yes; values below map to no.

# variantAnnotation, label
records = [
    ("W10D", "yes"),
    ("I27W", "yes"),
    ("L37T", "no"),
    ("R20T", "yes"),
    ("E8F", "yes"),
    ("N14D", "yes"),
]
